Values were extracted from ChEMBL document CHEMBL4177558.

- Test system: MC3T3-E1
- Assay Explanation: Induction of osteoblast proliferation in mouse MC3T3-E1 cells assessed a growth rate relative to untreated control at 10^-8 mol/L after 48 hrs by MTT assay
- Format: functional
Labelling field: enter 1 (yes) if recorded Activity is less than 3%. Enter 0 (no) if it equals or exceeds that cut-off.

Use these answered entries as a reference point.
[[record]]
compound = "CC(=O)CCc1c(-c2ccccc2Cl)oc2cc3c(c(O)c2c1=O)C=CC(C)(C)O3"
class_assignment = "1 (yes)"

[[record]]
compound = "CC(=O)CCc1c(-c2ccccc2Br)oc2c3c(cc(O)c2c1=O)OC(C)(C)C=C3"
class_assignment = "1 (yes)"

[[record]]
compound = "CC(C)(O)CCc1c(-c2ccc(O)cc2O)oc2cc3c(c(O)c2c1=O)C=CC(C)(C)O3"
class_assignment = "1 (yes)"

[[record]]
compound = "CC(O)CCc1c(-c2ccccc2Br)oc2c3c(cc(O)c2c1=O)OC(C)(C)C=C3 (stereo not drawn)"
class_assignment = "0 (no)"

[[record]]
compound = "CC(C)(O)CCc1c(-c2ccccc2Br)oc2c3c(cc(O)c2c1=O)OC(C)(C)C=C3"
class_assignment = "0 (no)"


Below: the item to evaluate.
q: I'd appreciate it if you could check whether CC(C)(O)CCc1c(-c2ccccc2Br)oc2cc3c(c(O)c2c1=O)C=CC(C)(C)O3 has Activity smaller than 3%.
a: 0 (no)
